molecular target: human glucagon receptor (human, UniProt P47871); test: cell-based or functional assay
Starred links: 1 amine or outer side, 2 acyl side, 3 side chain; linkers in the order of their positions; H or OH if unused. Non-standard residues stand in square brackets, D forms with d. Groups on a side chain read outwards from the residue. No end group written: not given here. *: point of attachment. C20 diacid = O=C(O)CCCCCCCCCCCCCCCCCCC(=O)*; C18 diacid = O=C(O)CCCCCCCCCCCCCCCCC(=O)*; γGlu = O=C(O)[C@H](CCC(=O)[*:2])N[*:1]; αMeF = C[C@](N)(Cc1ccccc1)C(=O)O; AEEA = NCCOCCOCC(=O)O; Aib = CC(C)(N)C(=O)O
Listed binders paired with reported hGluc-R EC50 (pM)
Provide only the numeric value, understood in pM.

Consider the following illustrative entries.
BINDER: H[Aib]HGS[αMeF]TSDVSK[αMeF]LDSRAAK([AEEA-AEEA-γGlu-C18 diacid])D[αMeF]VE[Aib]IANT-NH2 [Peptide 227]
REPORTED RESULT: 27.2
--
BINDER: H[Aib]HGS[αMeF]TSDVSK[αMeF]LDSRAAK([AEEA-AEEA-C20 diacid])D[αMeF]VQ[Aib]IANT-NH2 [Peptide 277]
REPORTED RESULT: 57.3
--
BINDER: H[Aib]HGS[αMeF]TSDVSK[αMeF]LDSR[Aib]AK([AEEA-γGlu-C18 diacid])DFVESIANT-NH2 [Peptide 253]
REPORTED RESULT: 53.1

Now consider the entry below.
INPUT: Which value of hGluc-R EC50 (pM) has been reported for H[Aib]HGS[αMeF]TSDVSK[αMeF]LDSRAAK([AEEA-γGlu-AEEA-C20 diacid])D[αMeF]VQ[Aib]IANT-NH2 [Peptide 265] in the records?
OUTPUT: 131
